target: human GPR40 (Homo sapiens)
assay text: FDSS-based intracellular calcium assay (Human GRP40 in vitro assay)
Format: cell-based
Design: 3xFLAG; expressed in transfected cells
stated conditions: cells expressing GPR40, intracellular Ca2+ response, FDSS reader; read-out: hGPR40 EC50
pEC50: −log10 of the molar value. Where a name gives a salt, the structure may show the parent alone.
# pEC50 >= 6 gives true (1), anything below gives false (0)

Item COc1cc(N2CCC(Oc3ccc(N4CC[C@@H](C)[C@@H]4CC(=O)O)cn3)C(C)C2)c(Cl)cn1 (stereo partly drawn) [Example 105] with pEC50 of 6 or above?
true (1)

Item COc1cc(N2CCC(Oc3ccc(N4C[C@H](C(F)(F)F)C[C@@H]4CC(=O)O)cc3)C(C)C2)c(Cl)cn1 (single isomer, unassigned) [Example 27, Isomer 1, HCl] with pEC50 of 6 or above?
true (1)

Item CCOc1ccc(F)c(N2CCC(Oc3ccc(N4C[C@H](OC)[C@@H](C)[C@@H]4CC(=O)O)cc3F)CC2)c1 [Example 101] with pEC50 of 6 or above?
true (1)

###

target: human GPR40 (Homo sapiens)
assay text: FDSS-based intracellular calcium assay (Human GRP40 in vitro assay)
Format: cell-based
Design: 3xFLAG; expressed in transfected cells
stated conditions: cells expressing GPR40, intracellular Ca2+ response, FDSS reader; read-out: hGPR40 EC50
Counter-ions that a name gives are not always drawn.
This listing pairs compounds with measured log10 of EC50.
Each number you see is log10 of EC50, and the unit inside the log is nM.

Example results:
{"compound": "COc1cc(N2CCC(Oc3ccc(N4C[C@H](C(F)(F)F)C[C@@H]4CC(=O)O)cc3)C(F)C2)c(Cl)cn1 (single isomer, unassigned) [Example 28, Isomer 1, HCl]", "log10 of EC50": 2.52}
{"compound": "COc1cc(N2CCC(Oc3ccc(N4C[C@H](OC)C[C@@H]4CC(=O)O)cc3Cl)C(C)C2)c(Cl)cn1 (stereo partly shown) [Example 137, sodium salt]", "log10 of EC50": 2.36}
{"compound": "COc1cc(N2CCC(Oc3ccc(N4C[C@H](O)[C@@H](C)[C@@H]4CC(=O)O)c(F)c3)C(C)C2)c(Cl)cn1 (stereo partly shown) [Example 115]", "log10 of EC50": 3.21}

Shifting focus to the compound that follows.
Give the reported value of log10 of EC50 for this record: COc1cc(N2CCC(Oc3ccc(N4C[C@H](F)[C@@H](C)[C@@H]4CC(=O)O)cc3F)C(C)C2)c(Cl)cn1 (stereo partly shown) [Example 156]
1.80

###

target: human GPR40 (Homo sapiens, UniProt O14842)
Sequence (O14842 whole entry): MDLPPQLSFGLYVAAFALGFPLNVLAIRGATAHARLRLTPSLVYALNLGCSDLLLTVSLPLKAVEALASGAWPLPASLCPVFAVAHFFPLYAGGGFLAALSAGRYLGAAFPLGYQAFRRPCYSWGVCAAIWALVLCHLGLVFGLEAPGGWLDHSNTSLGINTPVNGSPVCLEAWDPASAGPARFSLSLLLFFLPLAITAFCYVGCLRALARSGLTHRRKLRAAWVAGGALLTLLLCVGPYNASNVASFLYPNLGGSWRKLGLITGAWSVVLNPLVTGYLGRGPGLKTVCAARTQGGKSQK
Where a name gives a salt, the structure may show the parent alone.
This listing pairs compounds with measured EC50.
Give a bare numeral; the unit nM is implied.

Example results:
{"compound": "COc1cc(N2CCC(Oc3ccc(N4C[C@H](C(F)(F)F)C[C@@H]4CC(=O)O)c(F)c3F)C(C)C2)c(Cl)cn1 (stereo partly shown) [Example 140]", "endpoint result": 72}
{"compound": "COc1cc(N2CCC(Oc3ccc(N4C[C@H](OC)[C@@H](C)[C@@H]4CC(=O)O)cn3)C(C)C2)c(Cl)cn1 (stereo partly shown) [Example 91, HCl]", "endpoint result": 18}
{"compound": "COc1ccc(F)c(N2CCC(Oc3ccc(N4C[C@H](C(F)(F)F)C[C@@H]4CC(=O)O)cc3)CC2)c1 [Example 1, HCl]", "endpoint result": 310}
{"compound": "COc1ccc(C2CCCC2(C)C)c(N2CCC(Oc3ccc(N4C[C@H](OC)C[C@@H]4CC(=O)O)cc3)CC2)c1 (single isomer, unassigned) [Example 65, Isomer 1]", "endpoint result": 10}

Give the reported value of EC50 for this record: COc1cc(N2CCC(Oc3ccc(N4C[C@H](OC)[C@@H](C)[C@@H]4CC(=O)O)cc3)C(C)C2)c(Cl)cn1 (stereo partly shown) [Example 119, HCl]
11

Give the reported value of EC50 for this record: CCOc1ccc(F)c(N2CCC(Oc3ccc(N4C[C@H](C(F)(F)F)C[C@@H]4CC(=O)O)cc3)C(CC(C)C)C2)c1 (single isomer, unassigned) [Example 35, Isomer 2, HCl]
17

Give the reported value of EC50 for this record: COc1cc(N2CCC(Oc3ccc(N4C[C@H](C(F)(F)F)C[C@@H]4CC(=O)O)cn3)C(C)C2)c(Cl)cn1 (stereo partly shown) [Example 133]
49
